System: 60 human cancer cell lines
experimentNotes: NCI-60 single-dose cytotoxicity assay
Assay type: cell-based
runConditions: mean-graph midpoint of percent growth of 60 human cancer cell lines, 10 μM drug, 48 h, relative to no-drug control and time zero
One threshold, 90%, splits the recorded Mean Growth % values: lower ones are Satisfied, equal or higher ones are Not satisfied.

[
  {
    "smilesRepresentation": "O=C1c2ccccc2-c2c1c1cccnc1c(=O)n2CCCn1ccnc1",
    "testedTarget": "60 human cancer cell lines",
    "classAssignment": "Satisfied"
  },
  {
    "smilesRepresentation": "O=C1c2ccccc2-c2c1c1cccnc1c(=O)n2CCCN1CCOCC1",
    "testedTarget": "60 human cancer cell lines",
    "classAssignment": "Satisfied"
  },
  {
    "smilesRepresentation": "O=C1c2ccccc2-c2c1c1ccncc1c(=O)n2CCCn1ccnc1",
    "testedTarget": "60 human cancer cell lines",
    "classAssignment": "Satisfied"
  },
  {
    "smilesRepresentation": "O=C1c2ccccc2-c2c1c1ncccc1c(=O)n2C[C@H](O)CO",
    "testedTarget": "60 human cancer cell lines",
    "classAssignment": "Not satisfied"
  },
  {
    "smilesRepresentation": "O=C1c2ccccc2-c2c1c1cnccc1c(=O)n2C[C@H](O)CO",
    "testedTarget": "60 human cancer cell lines",
    "classAssignment": "Satisfied"
  }
]

# credit: patent US10759795B2
